Assay: Solubility of Formula I Form I in solvents, gravimetric analysis of mother liquors (Example 1)
Assay type: physicochemical
Details: 79 °C, organic solvent or mixture, thermodynamic from solid; IPA (boiling point 89); 10° C. below reflux; read-out: Solubility at high temperature
endpoint: solubility (mg/mL)

| molecule | endpoint | measurement |
| --- | --- | --- |
| COc1cc2c(cc1OC)[C@H]1C[C@@H](OC(=O)[C@@H](N)C(C)C)[C@H](CC(C)C)CN1CC2.Cc1ccc(S(=O)(=O)O)cc1.Cc1ccc(S(=O)(=O)O)cc1 [Form I] | solubility | 22 |

* * *

Assay: Solubility of Form I in aqueous media by HPLC (Example 4)
Type: physicochemical
Conditions: aqueous media, aqueous buffer, thermodynamic from solid; Aqueous pH 3; 1 hr; 22° C.
Description: The vials were shaken. After 1 hr, a sample (˜0.5 ml) was removed via syringe, and filtered through a syringe filter (0.2 micron) into a second vial. 200 μl of each solution was then transferred into an HPLC vial and made up to 1 ml by adding 800 μl of diluent. These samples were analyzed directly by HPLC, and the response was outside the linearity range. […] The samples were re-analyzed by HPLC. […] All samples were then diluted and analyzed by HPLC, as above. […]

| compound | unit of measurement | solubility at 1 h |
| --- | --- | --- |
| COc1cc2c(cc1OC)[C@H]1C[C@@H](OC(=O)[C@@H](N)C(C)C)[C@H](CC(C)C)CN1CC2.Cc1ccc(S(=O)(=O)O)cc1.Cc1ccc(S(=O)(=O)O)cc1 [Form I] | mg/mL | 28.4 |

* * *

Test: Gravimetric vapour sorption (GVS)
Assay type: physicochemical
Conditions: after GVS; di(4-methylbenzenesulfonate)
endpoint: XRPD pattern following the adsorption/desorption analysis

| compound | measurement |
| --- | --- |
| COc1cc2c(cc1OC)[C@H]1C[C@@H](OC(=O)[C@@H](N)C(C)C)[C@H](CC(C)C)CN1CC2.Cc1ccc(S(=O)(=O)O)cc1.Cc1ccc(S(=O)(=O)O)cc1 [Form IV] | substantially unchanged |
| COc1cc2c(cc1OC)[C@H]1C[C@@H](OC(=O)[C@@H](N)C(C)C)[C@H](CC(C)C)CN1CC2.Cc1ccc(S(=O)(=O)O)cc1.Cc1ccc(S(=O)(=O)O)cc1 [Form II] | substantially unchanged |
| COc1cc2c(cc1OC)[C@H]1C[C@@H](OC(=O)[C@@H](N)C(C)C)[C@H](CC(C)C)CN1CC2.Cc1ccc(S(=O)(=O)O)cc1.Cc1ccc(S(=O)(=O)O)cc1 [Form V] | substantially unchanged |

* * *

Test: Thermodynamic aqueous solubility
Format: physicochemical
Conditions: water, 25 °C, water, thermodynamic from solid, water, 25° C., 24 hours; at the pH of the next column; read-out: Aqueous solubility mg/mL free form
Protocol: The suspension was equilibrated at 25° C. for 24 hours then the pH was measured. The suspension was then filtered through a glass fibre C filter. […] Different volumes of the standard, diluted and undiluted sample solutions were injected.
Structures can show the parent of a compound that is named as a salt.

| compound | result operator | solubility at 24 h [mg/mL] |
| --- | --- | --- |
| COc1cc2c(cc1OC)[C@H]1C[C@@H](OC(=O)[C@@H](N)C(C)C)[C@H](CC(C)C)CN1CC2 [Form I of Formula II, dihydrochloride] | > | 90 |
| COc1cc2c(cc1OC)[C@H]1C[C@@H](OC(=O)[C@@H](N)C(C)C)[C@H](CC(C)C)CN1CC2.Cc1ccc(S(=O)(=O)O)cc1.Cc1ccc(S(=O)(=O)O)cc1 [Form I] | = | 15 |

* * *

Assay: Solubility of Formula I Form I in solvents, gravimetric analysis of mother liquors (Example 1)
Type: physicochemical
Conditions: organic solvent or mixture, thermodynamic from solid; Acetonitrile; 5° C.; read-out: Solubility at 5° C. temperature

| molecule | solubility (mg/mL) |
| --- | --- |
| COc1cc2c(cc1OC)[C@H]1C[C@@H](OC(=O)[C@@H](N)C(C)C)[C@H](CC(C)C)CN1CC2.Cc1ccc(S(=O)(=O)O)cc1.Cc1ccc(S(=O)(=O)O)cc1 [Form I] | 17 |

* * *

Experiment: Solubility of Formula I Form I in solvents, gravimetric analysis of mother liquors (Example 1)
Assay type: physicochemical
Details: 55 °C, organic solvent or mixture, thermodynamic from solid; MeOH (boiling point 65); 10° C. below reflux; read-out: Solubility at high temperature

| compound | solubility |
| --- | --- |
| COc1cc2c(cc1OC)[C@H]1C[C@@H](OC(=O)[C@@H](N)C(C)C)[C@H](CC(C)C)CN1CC2.Cc1ccc(S(=O)(=O)O)cc1.Cc1ccc(S(=O)(=O)O)cc1 [Form I] | > 250 mg/mL |

* * *

Test: Solubility of Formula I Form I in solvents, gravimetric analysis of mother liquors (Example 1)
Format: physicochemical
Settings: 79 °C, organic solvent or mixture, thermodynamic from solid; Isopropyl Acetate (boiling point 89); 10° C. below reflux; read-out: Solubility at high temperature
endpoint: solubility (µg/mL)

| compound | endpoint | measurement |
| --- | --- | --- |
| COc1cc2c(cc1OC)[C@H]1C[C@@H](OC(=O)[C@@H](N)C(C)C)[C@H](CC(C)C)CN1CC2.Cc1ccc(S(=O)(=O)O)cc1.Cc1ccc(S(=O)(=O)O)cc1 [Form I] | solubility | 4000 |

* * *

Test: Solubility of Formula I Form I in solvents, gravimetric analysis of mother liquors (Example 1)
Assay type: physicochemical
Conditions: 107 °C, organic solvent or mixture, thermodynamic from solid; MIBK (boiling point 117); 10° C. below reflux; read-out: Solubility at high temperature

| compound | unit of measurement | solubility |
| --- | --- | --- |
| COc1cc2c(cc1OC)[C@H]1C[C@@H](OC(=O)[C@@H](N)C(C)C)[C@H](CC(C)C)CN1CC2.Cc1ccc(S(=O)(=O)O)cc1.Cc1ccc(S(=O)(=O)O)cc1 [Form I] | µg/mL | 5000 |

* * *

Assay: Solubility of Form I in organic solvents by HPLC (Example 4)
Type: physicochemical
Details: 22 °C, organic solvent or mixture, thermodynamic from solid, Heptane
endpoint: solubility at 18 h (µg/mL)

| molecule | unit of measurement | measurement |
| --- | --- | --- |
| COc1cc2c(cc1OC)[C@H]1C[C@@H](OC(=O)[C@@H](N)C(C)C)[C@H](CC(C)C)CN1CC2.Cc1ccc(S(=O)(=O)O)cc1.Cc1ccc(S(=O)(=O)O)cc1 [Form I] | µg/mL | 3 |

* * *

Test: Gravimetric vapour sorption (GVS)
Assay type: physicochemical
Details: 25° C.
Counter-ions that a name gives are not always drawn.

| molecule | result operator | Stability to humidity GVS uptake / % |
| --- | --- | --- |
| COc1cc2c(cc1OC)C1CC(OC(=O)C(N)C(C)C)C(CC(C)C)CN1CC2.O=C(O)C(=O)O.O=C(O)C(=O)O (stereo not shown) [oxalate] | = | 0.8 |
| Br [hydrobromide] | > | 3.9 |
| COc1cc2c(cc1OC)[C@H]1C[C@@H](OC(=O)[C@@H](N)C(C)C)[C@H](CC(C)C)CN1CC2.Cc1ccc(S(=O)(=O)O)cc1.Cc1ccc(S(=O)(=O)O)cc1 [Form I] | = | 1.0 |
| COc1cc2c(cc1OC)[C@H]1C[C@@H](OC(=O)[C@@H](N)C(C)C)[C@H](CC(C)C)CN1CC2 [Form I of Formula II, dihydrochloride] | = | 15.2 |

* * *

Assay: Solubility of Formula I Form I in solvents, gravimetric analysis of mother liquors (Example 1)
Type: physicochemical
Conditions: organic solvent or mixture, thermodynamic from solid; MEK; 5° C.; read-out: Solubility at 5° C. temperature
endpoint: solubility (µg/mL)

| compound | measurement |
| --- | --- |
| COc1cc2c(cc1OC)[C@H]1C[C@@H](OC(=O)[C@@H](N)C(C)C)[C@H](CC(C)C)CN1CC2.Cc1ccc(S(=O)(=O)O)cc1.Cc1ccc(S(=O)(=O)O)cc1 [Form I] | 3000 |

* * *

Test: Solubility of Formula I Form I in solvents, gravimetric analysis of mother liquors (Example 1)
Format: physicochemical
Conditions: organic solvent or mixture, thermodynamic from solid; THF; 5° C.; read-out: Solubility at 5° C. temperature

| molecule | unit of measurement | solubility |
| --- | --- | --- |
| COc1cc2c(cc1OC)[C@H]1C[C@@H](OC(=O)[C@@H](N)C(C)C)[C@H](CC(C)C)CN1CC2.Cc1ccc(S(=O)(=O)O)cc1.Cc1ccc(S(=O)(=O)O)cc1 [Form I] | µg/mL | 4000 |

* * *

Experiment: Solubility of Formula I Form I in solvents, gravimetric analysis of mother liquors (Example 1)
Format: physicochemical
Conditions: 56 °C, organic solvent or mixture, thermodynamic from solid; THF (boiling point 66); 10° C. below reflux; read-out: Solubility at high temperature

| molecule | solubility / µg/mL |
| --- | --- |
| COc1cc2c(cc1OC)[C@H]1C[C@@H](OC(=O)[C@@H](N)C(C)C)[C@H](CC(C)C)CN1CC2.Cc1ccc(S(=O)(=O)O)cc1.Cc1ccc(S(=O)(=O)O)cc1 [Form I] | 6000 |
